The reported numbers originate from paper PMC5011342.

Documented 1 µM (% DMSO) across a set of compounds
Test system: expanded OPCs
Procedure Details: cells
Cond: alamarBlue viability, NCC library compound at 1 µM, sheet "All Tox data"
Respond with the bare value in % DMSO.

Worked examples, 3 compounds total:
Nc1nc(Cl)nc2c1ncn2[C@@H]1O[C@H](CO)[C@@H](O)[C@H]1O :: 99.2
CCCCCCCCCOc1ccc2[nH]cc(CCN)c2c1 :: 9.3
CC[C@H](C)C(=O)O[C@H]1CCC=C2C=C[C@H](C)[C@H](CC[C@@H]3C[C@@H](O)CC(=O)O3)[C@H]21 :: 96.3

Recorded 1 µM (% DMSO) for CN(CCO)CC(O)Cn1cnc2c1c(=O)n(C)c(=O)n2C (stereo not shown) with expanded OPCs, please? 91.0

I'm curious: which 1 µM (% DMSO) was measured for "CC(C)C[C@H](NC(=O)[C@@H](COC(C)(C)C)NC(=O)[C@H](Cc1ccc(O)cc1)NC(=O)[C@H](CO)NC(=O)[C@H](Cc1c[nH]c2ccccc12)NC(=O)[C@H](Cc1cnc[nH]1)NC(=O)[C@@H]1CCC(=O)N1)C(=O)N[C@@H](CCCNC(=N)N)C(=O)N1CCC[C@H]1C(=O)NNC(N)=O" tested on expanded OPCs? 94.5

Please tell me: 1 µM (% DMSO) of "N=C(N)N" , system expanded OPCs? 89.1

1 µM (% DMSO) of "O=c1cnn([C@@H]2O[C@H](CO)[C@@H](O)[C@H]2O)c(=O)[nH]1" on expanded OPCs? 93.6

---

Tested on: expanded OPCs
Procedure Details: cells
Cond: Rattus norvegicus, 72 h, read-out: 10 µM (% DMSO), alamarBlue viability, NCC library compound at 10 µM, sheet "All Tox data"
The following compounds are listed with their measured viability at 10 µM values.
Provide only the numeric value, understood in %.

Examples with their reported viability at 10 µM follow.
NCCc1ccccn1 :: 73.2
CCN(CC)C(=O)C1(c2ccccc2)CC1CN (centres unmarked) :: 71.2
CC(N/C(=N\C#N)Nc1ccncc1)C(C)(C)C (centres unmarked) :: 93.6
CN(CCOc1ccc(NS(C)(=O)=O)cc1)CCc1ccc(NS(C)(=O)=O)cc1 [Dofetilide, reference compound] :: 122

// next item, viability at 10 µM requested
Requested read-out: viability at 10 µM. Entry: "Nc1nc(N)c2nc(-c3ccccc3)c(N)nc2n1" 95.3

---

Test system: expanded OPCs
Procedure Details: cells
Cond: Rattus norvegicus, 72 h, read-out: 1 µM (% DMSO), alamarBlue viability of expanded OPCs, compound at 1 µM, sheet All Tox data
Mark each entry T if its viability at 1 µM sits below 90%, and F for all others.

N[C@@H]1CON=C1O :: T
CC(COc1ccccc1Cc1ccccc1)N1CCCCC1 (stereo not shown) [Benproperine, reference compound] :: F
Nc1ncnc2c1ncn2[C@@H]1O[C@H](CO)C[C@H]1O [Cordycepin] :: T
c1cnc(N2CCN(Cc3ccc4c(c3)OCO4)CC2)nc1 :: F

Criterion: viability at 1 µM strictly below 90%. Is it met by "O=C(O)CCc1nc(-c2ccccc2)c(-c2ccccc2)o1" ? T

---

Below, each entry is listed alongside its reported viability at 1 µM.
System: expanded OPCs
Procedure Details: cells
Cond: Rattus norvegicus, 72 h, read-out: 1 µM (% DMSO), alamarBlue viability of expanded OPCs, compound at 1 µM, sheet All Tox data
Please reply with the bare figure in % and do not write the unit itself.

Some compounds with known viability at 1 µM results, for comparison:
CC[C@@H]1C(=O)OC[C@@H]1Cc1cncn1C :: 101
Nc1ccn([C@@H]2O[C@H](CO)[C@@H](O)[C@@H]2O)c(=O)n1 :: 56.2
Fc1ccc([C@@H]2CCNC[C@H]2COc2ccc3c(c2)OCO3)cc1 :: 38.3

Form field: reported viability at 1 µM of CNC1CC(c2ccc(Cl)c(Cl)c2)c2ccccc21 (stereo not drawn) 41.1

// lookup viability at 1 µM for "Cc1[nH]cnc1CN1CCc2c(c3ccccc3n2C)C1=O" 91.2

Query: viability at 1 µM; subject: "COC(=O)Nc1nc2cc(C(=O)c3ccc(F)cc3)ccc2[nH]1" 69.3

Could you tell me which viability at 1 µM is on file for Cc1cccc(C)c1NC(=O)C(C)N (stereo not drawn) [Tocainide] ? 96.2

What value of measured viability at 1 µM is listed for O=C1[C@H]2CCCC[C@H]2C(=O)N1CCCCN1CCN(c2nsc3ccccc23)CC1 [Perospirone, reference compound] ? 164
